# test.summary: gradient 5% acetonitrile 3 min, to 50% in 2 min, to 85% in 15 min, held 3 min, 100 µL/min
# run.conditions: column: Zorbax Extend-C18 2.1 x 50 mm; eluents: water / acetonitrile, 0.1% formic acid
measured.attribute: RP-LC retention time (s)

compound: CCN1C(=O)Cc2cc(C(=O)N3CCN(C4CCCCC4)CC3)ccc21
result: 583

compound: CC(C)C(=O)N1CCCC(c2nc(CCNC(=O)C3CCC3)cs2)C1 (stereo unspecified)
result: 694

compound: CNC(=O)c1cc2cccc3c2n1CC(C)S3 (stereo unspecified)
result: 853

compound: OCCCc1nc2ccccc2n1Cc1ccccc1Cl
result: 568

compound: Cc1nc(C)c(-c2ccc(=O)[nH]n2)s1
result: 558

compound: Cc1noc(C)c1CN1CCN(C(=O)NCc2cccc(F)c2)CC1
result: 599

* * *

# test.summary: gradient 5% acetonitrile 3 min, to 50% in 2 min, to 85% in 15 min, held 3 min, 100 µL/min
# run.conditions: column: Zorbax Extend-C18 2.1 x 50 mm; eluents: water / acetonitrile, 0.1% formic acid
measured.attribute: RP-LC retention time (s)

I: COC1CCC12CCN(C(=O)C1CCCCC1)CC2 (centres undefined)
II: CCN1CCN(c2cc(C)c3cc(NC(=O)COc4ccccc4)ccc3n2)CC1
Returns: the label, I or II , whose recorded RP-LC retention time is the lower number. Use the label to indicate which entry you chose.
II

P: CC1(C)CC(=O)c2cn(-c3ccc(F)cc3)c(=O)c(C(=O)Nc3cccnc3)c2C1
Q: CC(C)c1csc(-c2csc(S(=O)(=O)NCc3ccc(Cl)cc3)c2)n1
Returns: the label, P or Q , whose recorded RP-LC retention time is the lower number. Use the label to indicate which entry you chose.
P

* * *

# test.summary: gradient 5% acetonitrile 3 min, to 50% in 2 min, to 85% in 15 min, held 3 min, 100 µL/min
# run.conditions: column: Zorbax Extend-C18 2.1 x 50 mm; eluents: water / acetonitrile, 0.1% formic acid
measured.attribute: RP-LC retention time (s)

compound: COc1ccc(NS(=O)(=O)c2cc3n(c2)CCCNC3=O)c(C)c1
RP-LC retention time / s: 640

compound: N#Cc1cccc(C(=O)N2CCN3CCS(=O)(=O)N(C4CC4)C(=O)C3C2)c1 (stereo not given)
RP-LC retention time / s: 714

compound: NC(=O)C1CCN(C(=O)c2cc(-c3ccccc3Cl)on2)CC1
RP-LC retention time / s: 674

compound: COc1cccc(-c2noc(Cn3c(=O)n(-c4ccccc4C)c(=O)c4sccc43)n2)c1
RP-LC retention time / s: 978

compound: COc1ccccc1NCC(O)Cn1ccc2ccccc21 (stereo not given)
RP-LC retention time / s: 871

compound: COc1ccccc1NC(=O)Cn1cc(C(=O)N2CCCC2)c(=O)c2ccc(C)nc21
RP-LC retention time / s: 705

compound: O=C(C1CC(=O)N(c2n[nH]c3cccc(F)c23)C1)N1CCc2ccccc2C1 (stereo not given)
RP-LC retention time / s: 752

compound: CCOC(=O)c1sc(NC(=O)C2CCCO2)nc1-c1ccccc1 (stereo not given)
RP-LC retention time / s: 950

compound: Cc1csc(NC(=O)C2CCN(S(=O)(=O)c3cc(C(=O)N4CCOCC4)cs3)CC2)n1
RP-LC retention time / s: 702

compound: Cc1ccc(CCNC(=O)C2CCCN(c3ncnc4c3nc3n4CCCCC3)C2)cc1 (stereo not given)
RP-LC retention time / s: 897

* * *

# test.summary: gradient 5% acetonitrile 3 min, to 50% in 2 min, to 85% in 15 min, held 3 min, 100 µL/min
# run.conditions: column: Zorbax Extend-C18 2.1 x 50 mm; eluents: water / acetonitrile, 0.1% formic acid
measured.attribute: RP-LC retention time (s)

compound: CCC(C)N1CC(=O)N(c2ccc(OC)c(Cl)c2)[C@@H]2CS(=O)(=O)C[C@@H]21 (stereo not given in full)
RP-LC retention time [s]: 786

compound: COc1ccc(-c2c(C)noc2NC(C)=O)cc1S(=O)(=O)Nc1ccc(F)cc1C
RP-LC retention time [s]: 770

compound: O=C(Nc1cnn(-c2ncc(N3CCCC3)cn2)c1)c1ccc(C(F)(F)F)cc1
RP-LC retention time [s]: 941

compound: COc1cccc(-n2ccn3cc(-c4cccc(Cl)c4)nc3c2=O)c1
RP-LC retention time [s]: 837

compound: COc1cccc(N2N=NC3C(=O)N(c4ccc(OC)c(OC)c4)C(=O)C32)c1 (stereo not given)
RP-LC retention time [s]: 852

* * *

# test.summary: gradient 5% acetonitrile 3 min, to 50% in 2 min, to 85% in 15 min, held 3 min, 100 µL/min
# run.conditions: column: Zorbax Extend-C18 2.1 x 50 mm; eluents: water / acetonitrile, 0.1% formic acid
measured.attribute: RP-LC retention time (s)

Illustrative cases are given below, each with its answer.
molecule: Cc1ccc(-n2nc(C(=O)N3CCN(c4ncccn4)CC3)c3ncn(C)c(=O)c32)cc1
RP-LC retention time [s]: 726
//
molecule: Cc1cc(=O)n(CC(=O)Nc2cc(F)cc(F)c2)c(N2CCOCC2)n1
RP-LC retention time [s]: 724
//
molecule: O=C(c1ccc(F)c(F)c1)N1CCc2[nH]cnc2C1c1ccccc1 (centres undefined)
RP-LC retention time [s]: 652

P: CCC(=O)N1CCc2cc(C(N)=O)ccc21
Q: O=S(=O)(Cc1ccccc1F)N1CC(c2nc(CCOCc3ccccc3)no2)C1
Lab note: check whether P or Q shows the higher recorded RP-LC retention time. Use the label to indicate which entry you chose.
Q

* * *

# test.summary: gradient 5% acetonitrile 3 min, to 50% in 2 min, to 85% in 15 min, held 3 min, 100 µL/min
# run.conditions: column: Zorbax Extend-C18 2.1 x 50 mm; eluents: water / acetonitrile, 0.1% formic acid
measured.attribute: RP-LC retention time (s)

Illustrative cases are given below, each with its answer.
compound: CC(=O)c1cccc(NC(=O)c2noc3c2CCCCC3)c1
result: 977
//
compound: O=C(NCc1cccnc1)c1cccn1-c1nnc(N2CCOCC2)s1
result: 560
//
compound: CCCc1cnc2c(c1SCC(=O)N(CC)CC)c(=O)n(C)c(=O)n2C
result: 892
//
compound: CCC(C(=O)N(C)CCc1noc(-c2ccc(C(=O)N3CCCC3)cc2)n1)c1ccccc1 (stereo not given)
result: 872

A: CC1CCCN(CCCNC(=O)C(=O)Nc2ccc3nc4n(c(=O)c3c2)CCCCC4)C1 (stereo not given)
B: COc1ccccc1-c1nc(C2CCN(C(=O)C3COc4ccccc4O3)CC2)no1 (stereo not given)
Returns: the label, A or B , whose recorded RP-LC retention time is the lower number. Use the label to indicate which entry you chose.
A

P: CCC(C)NC(=O)c1c2c(cn(-c3ccc(F)cc3)c1=O)C(=O)CC(C)(C)C2 (stereo not given)
Q: COc1ccc(N2CCN(c3nc(C(=O)NCCN4CCOCC4)cs3)CC2)cc1
Returns: the label, P or Q , whose recorded RP-LC retention time is the lower number. Use the label to indicate which entry you chose.
Q
(Q: 615 s, P: 920 s)

* * *

# test.summary: gradient 5% acetonitrile 3 min, to 50% in 2 min, to 85% in 15 min, held 3 min, 100 µL/min
# run.conditions: column: Zorbax Extend-C18 2.1 x 50 mm; eluents: water / acetonitrile, 0.1% formic acid
measured.attribute: RP-LC retention time (s)

I: Cc1nc2c(ccc3nc(NC(=O)c4ccc(Cl)s4)sc32)s1
II: COCCNC(=O)C1CCCN(C(=O)c2cc(C)cc(C)c2)C1 (centres undefined)
Lab note: check whether I or II shows the higher recorded RP-LC retention time. Use the label to indicate which entry you chose.
I

I: COc1ccccc1-c1nnc(-c2ccc(OC)c(S(=O)(=O)N3CCOCC3)c2)o1
II: CCCCCCNC(=O)C1CCCN(c2ncc(-c3ccccc3)cn2)C1 (centres undefined)
Returns: the label, I or II , whose recorded RP-LC retention time is the lower number. Use the label to indicate which entry you chose.
I

a: COC(=O)c1c(NCc2cccc(OC)c2)c2cccc(Cl)c2[nH]c1=O
b: Clc1ccc(OCc2nnc3sc(-c4ccc5ccccc5n4)nn23)cc1
Returns: the label, a or b , whose recorded RP-LC retention time is the lower number. Use the label to indicate which entry you chose.
a
(a: 803 s, b: 1210 s)

1: CCc1cc(=O)n(CC(=O)N(CC)c2ccccc2)c(N)n1
2: CCc1nn2c(CNS(=O)(=O)c3ccc(C)c(C)c3)c(-c3ccccc3)nc2s1
Lab note: check whether 1 or 2 shows the higher recorded RP-LC retention time. Use the label to indicate which entry you chose.
2

* * *

# test.summary: gradient 5% acetonitrile 3 min, to 50% in 2 min, to 85% in 15 min, held 3 min, 100 µL/min
# run.conditions: column: Zorbax Extend-C18 2.1 x 50 mm; eluents: water / acetonitrile, 0.1% formic acid
measured.attribute: RP-LC retention time (s)

Illustrative cases are given below, each with its answer.
compound: Cc1cc(C)c(C(=O)N2CCCC(C(=O)NCc3cccc(Br)c3)C2)[nH]1 (stereo not given)
value.unit: s
RP-LC retention time: 855
--
compound: CN1CCCC1c1nc(C2CN(S(=O)(=O)Cc3ccccc3F)C2)no1 (stereo not given)
value.unit: s
RP-LC retention time: 626
--
compound: Cc1ccc(Nc2c(-c3ccc(Cl)cc3)nc3ccc(C)cn23)cc1
value.unit: s
RP-LC retention time: 836
--
compound: Cc1ccc(NCCCc2ccccc2)c(N)c1
value.unit: s
RP-LC retention time: 728
--
compound: O=C1C(N2CCN(S(=O)(=O)c3cc(F)cc(F)c3)CC2)CCN1Cc1ccccn1 (stereo not given)
value.unit: s
RP-LC retention time: 601
--
compound: O=C(CCSc1ccccc1)NCC1CCN(C(=O)COc2ccccc2)CC1
value.unit: s
RP-LC retention time: 757
--
compound: Cc1ccccc1-c1noc(CN2C(=O)COc3cc(Cl)ccc32)n1
value.unit: s
RP-LC retention time: 1150
--
compound: Cc1nnc2ccc(S(=O)(=O)N(Cc3ccc(F)cc3)c3ccccc3)cn12
value.unit: s
RP-LC retention time: 863

1: COc1ccccc1C(CNC(=O)c1cc(=O)c2ccc(Br)cc2o1)N(C)C (stereo not given)
2: CCn1cc(-c2nc(C(=O)Nc3cc(F)cc(F)c3)cs2)c2cccnc21
Lab note: check whether 1 or 2 shows the higher recorded RP-LC retention time. Use the label to indicate which entry you chose.
2
